Assay remarks: Cytotoxicity assay (TOX8 kit)
Assay type: cell-based, mouse
Conditions: mouse, 3T3 swiss albino mouse fibroblasts; 3T3 fibroblasts, 48 h treatment; concentration in medium lethal for 20% of living cells (80% viability)
Quantity name: IC20 at 48 h (µM)
Give the quantity in µM, number only.

Give recorded IC20 at 48 h. "CC1=C(/C=C/C(C)=C/C=C/C(C)=C/C(=O)OCC(=O)C(C)(C)C)C(C)(C)CCC1"
171
